Readings of Toxic dose for the listed molecules
Test system: Nrf2-ARE pathway
Protocol summary: ARE reporter assay in CHO 4xARE-TK-GFP cells (Spectrum library hits)
Experimental parameters: lowest dose at which a reduction in GFP fluorescence was observed

{"Molecule": "COc1cccc(O)c1O", "Toxic dose, µM": 100}
{"Molecule": "C=C(CC)C(=O)c1ccc(OCC(=O)O)c(Cl)c1Cl [Ethacrynic acid, reference compound]", "Toxic dose, µM": 100}
{"Molecule": "CC1=C2C(=CO[C@H](C)[C@H]2C)C(O)=C(C(=O)O)C1=O", "Toxic dose, µM": 30}
{"Molecule": "CC(=O)O[C@@H]1C[C@H]2C(C)(C)C(=O)C=C[C@]2(C)[C@H]2CC[C@]3(C)C(=CC(=O)O[C@H]3c3ccoc3)[C@@]21C", "Toxic dose, µM": 30}
{"Molecule": "OC[C@H]1O[C@@H](n2cnc3c(NCc4ccco4)ncnc32)[C@H](O)[C@@H]1O [Kinetin riboside]", "Toxic dose, µM": 30}
{"Molecule": "COc1cc(O)cc(OC)c1OC [Antiarol]", "Toxic dose, µM": 100}
{"Molecule": "COc1ccc2c(c1)OC/C(=C/c1ccc(OC)c(OC)c1)C2=O", "Toxic dose, µM": 100}
{"Molecule": "O=C1C=C2C=C[C@@H]3C[C@@]2(O1)[C@H]1CCCCN31", "Toxic dose, µM": 30}

* * *

Test system: Nrf2-ARE pathway
Protocol summary: ARE reporter assay in CHO 4xARE-TK-GFP cells (Spectrum library hits)
Experimental parameters: lowest dose at which a reduction in GFP fluorescence was observed
Each entry below carries its recorded Toxic dose.
Measured parameter: Toxic dose (µM)

{"Compound": "CC1=CC(=O)C(C(C)C)=CC1=O [Thymoquinone]", "Unit abbrev": "µM", "Endpoint value": 30}
{"Compound": "ClC1=C(Cl)C2(Cl)C3C(Cl)C(Cl)CC3C1(Cl)C2(Cl)Cl (stereo not shown) [Chlordane]", "Unit abbrev": "µM", "Endpoint value": 100}
{"Compound": "CC(=O)O[C@H]1CCC2(C)C3=C(CCC2C1(C)C)[C@@]1(C)CC[C@@H](C(C)CCC=C(C)C)[C@]1(C)CC3 (stereo partly shown) [Euphol acetate]", "Unit abbrev": "µM", "Endpoint value": 100}
{"Compound": "CC(=O)Oc1ccc(O)cc1 [4-Acetoxyphenol]", "Unit abbrev": "µM", "Endpoint value": 100}
{"Compound": "C=C1CC[C@@H]2[C@](C)(CO)[C@H](O)CC[C@@]2(C)[C@@H]1C/C=C1/C(=O)OC[C@H]1O [Andrographolide]", "Unit abbrev": "µM", "Endpoint value": 100}

* * *

Tested on: NSC34 cells
Protocol summary: NSC34 oxidative stress assay (serum withdrawal, DCF)
Experimental parameters: Mus musculus, NSC-34, 24 h, read-out: NSC34 oxidative stress assay Max reduction
Counter-ions that a name gives are not always drawn.

{"Compound": "S=C=NCc1ccccc1 [Benzyl isothiocyanate]", "Emax": "-28%"}
{"Compound": "O=C1C=C2C=C[C@@H]3C[C@@]2(O1)[C@H]1CCCCN31 [Securinine]", "Emax": "20%"}
{"Compound": "COc1cc(O)cc(OC)c1OC [Antiarol]", "Emax": "-50%"}
{"Compound": "CC(COc1ccccc1)NC(C)C(O)c1ccc(O)cc1 (stereo not drawn) [Isoxsuprine hydrochloride, reference compound]", "Emax": "-16%"}
{"Compound": "CC(=O)CCC(=O)O [Levulinic acid]", "Emax": "15%"}
{"Compound": "CC1(C)C(=O)C=C[C@]2(C)[C@H]3CC[C@@]4(C)[C@H](c5ccoc5)OC(=O)[C@H]5O[C@]54[C@]3(C)[C@H](O)C[C@@H]12 [Deacetylgedunin]", "Emax": "0%"}
{"Compound": "Oc1ccc(O)cc1 [Hydroquinone, reference compound]", "Emax": "0%"}
{"Compound": "C=C1C(=O)O[C@H]2[C@H]1CC/C(C)=C/CC[C@@]1(C)O[C@@H]21 [Parthenolide]", "Emax": "0%"}
{"Compound": "CC(C)N(C(=O)CCl)c1ccccc1 [Propachlor]", "Emax": "0%"}
